Origin of values: the supplement of paper PMC12667976

B1: library; numbered along this chain (parent)
chain: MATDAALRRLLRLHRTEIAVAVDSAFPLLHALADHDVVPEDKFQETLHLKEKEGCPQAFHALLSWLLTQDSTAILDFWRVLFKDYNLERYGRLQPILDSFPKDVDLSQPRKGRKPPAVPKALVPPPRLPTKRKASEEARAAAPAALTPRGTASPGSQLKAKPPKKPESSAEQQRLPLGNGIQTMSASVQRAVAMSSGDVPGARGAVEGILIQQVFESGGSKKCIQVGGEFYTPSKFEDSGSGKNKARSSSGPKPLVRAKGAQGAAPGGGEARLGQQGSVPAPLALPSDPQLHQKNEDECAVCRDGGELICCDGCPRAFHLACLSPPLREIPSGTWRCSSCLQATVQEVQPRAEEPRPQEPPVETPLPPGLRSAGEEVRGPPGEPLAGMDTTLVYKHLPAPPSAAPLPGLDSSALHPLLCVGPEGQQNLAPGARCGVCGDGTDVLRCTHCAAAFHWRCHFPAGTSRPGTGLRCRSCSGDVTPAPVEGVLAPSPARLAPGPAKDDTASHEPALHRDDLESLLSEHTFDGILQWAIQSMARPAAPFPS

Variants of: B1
assayText: AIRE transcriptional activation functional score (insulin promoter-GFP; nonsense median 0, synonymous median 1) (normalised score); higher = higher AIRE activity (more reporter activation)
conditionInfo: with insulin promoter-GFP reporter in HEK293
Could you label it rule met if measured AIRE transcriptional activation functional score is 1 or higher, and rule not met otherwise?

Answered cases to consult:
{"mutant": "T480K", "group": "rule not met"}
{"mutant": "A202Y", "group": "rule met"}
{"mutant": "L327K", "group": "rule not met"}
{"mutant": "F453E", "group": "rule not met"}
{"mutant": "T130L", "group": "rule met"}
{"mutant": "G369V", "group": "rule not met"}
{"mutant": "G469C", "group": "rule met"}
{"mutant": "G408V", "group": "rule not met"}

INPUT: Answer whether AIRE transcriptional activation functional score of P119D is greater than or equal to 1.
OUTPUT: rule not met

INPUT: Please check the record D198R and state if its AIRE transcriptional activation functional score is at or above 1.
OUTPUT: rule not met

INPUT: Would you say K253Y shows AIRE transcriptional activation functional score at minimum 1?
OUTPUT: rule not met

INPUT: Given the entry K83Y , answer whether its AIRE transcriptional activation functional score meets or surpasses 1.
OUTPUT: rule not met
